Experiment: Peptides toxicity assay (MTT assay), HeLa viability and proliferation
Format: cell-based, human
Settings: human; HeLa cells, MTT, 24 h incubation, peptide at 50 μM (FIG. 3B); read-out: cell viability
readout.name: viability at 24 h, 50 µM (%)
// units = %; emit number, no label

Lab book: viability at 24 h, 50 µM of N=C(N)NCCC[C@H](NC(=O)[C@H](CCCNC(=N)N)NC(=O)[C@H](CCCNC(=N)N)NC(=O)[C@H](CCC(N)=O)NC(=O)[C@H](CCCNC(=N)N)NC(=O)[C@H](CCCNC(=N)N)NC(=O)[C@H](CCCCN)NC(=O)[C@H](CCCCN)NC(=O)[C@H](CCCNC(=N)N)NC(=O)c1ccc2c(c1)C(=O)OC21c2ccc(O)cc2Oc2cc(O)ccc21)C(N)=O [CF-Tat-NH2] noted as 64
